For each record, write down the corresponding cell viability.
# System: NOMO1
# procedure_text: cell viability relative to DMSO control; higher = less cytotoxic
# particulars: RPMI 5 mM glucose + 10% dialyzed FBS; 48 h; 0.0632 µM
Respond numerically; units are % and should not be typed.

### Prompt Tell us which cell viability value is on record for CN(C)C[C@@H]1CC[N]2C=C(C3=C2C=CC=C3)C/4=C(/C(=O)NC4=O)C5=C[N](CCO1)C6=C5C=CC=C6
### Response 99.6

### Prompt Tell us which cell viability value is on record for C#C[C@]1(O)CC[C@H]2[C@@H]3CCc4cc(OC)ccc4[C@H]3CC[C@@]21C
### Response 120

### Prompt Tell us which cell viability value is on record for CCN1C[C@]2(OC(=O)c3ccccc3NC(C)=O)CC[C@H](OC)[C@@]34[C@@H]2C[C@@H]([C@@H]13)[C@@]1(O)C[C@H](OC)[C@H]2C[C@@H]4[C@]1(O)[C@H]2OC
### Response 105

### Prompt Tell us which cell viability value is on record for CC(C)c1ccccc1Cc1cc(C(=O)Nc2ccc([S+](=O)([O-])c3ccccc3C(C)(C)C)cc2)c(O)c(O)c1O
### Response 108
